Source listed as patent US20260028391A1.

- measured_target: T1, DS-Cav1 RSV F (respiratory syncytial virus)
- T1 construct: also called DC-VCav1
- assay_procedure: ELISA on DS-Cav1 RSV F
measurement_name: EC50

Any idea what its EC50 is? The binder is MPH12 VH-FRGL-S63A / MPH12 VL-FRGL (antibody, V domains shown, MPH12 variant; VH and VL only) VH: QVQLVESGGGLVKPGGSLRLSCAASGFTFSGFYMKWIRQAPGKGLEWVSSISASGSYTNYADAVEGRFTISRDNAKNSLYLQMNSLRAEDTAVYYCARGDSYCGASACHGEFFHKWGQGTLVTVSS VL: QSVLTQPPSVSGAPGQRVTISCTGSDSNIGADFDVHWYQQLPGTAPKLLIYGNINRPSGVPDRFSGSKSGTSASLAITGLQAEDEADYYCQSYDRSLHYVFGTGTKVTVL
0.0153 µg/mL

Which EC50 value is on record for MPH12 VH / MPH12 VL-D25E (antibody, V domains shown, MPH12 variant; VH and VL only) VH: QVQLVESGGGLVKPGGSLRLSCVASGFTFSGFYMKWIRQAPGKGLEWVSSISASGSYTNYADSVEGRFTVSRDNAKNSLFLLMSSLRAEDTAVYYCARGDSYCGASACHGEFFHKWGQGTLVTVSS VL: QSVLTQPPSVSGAPGQRVTISCTGSESNIGADFDVHWYQQLPGTAPKLLIYGNINRPSGVPDRFSGSRSGTSAFLAITRLQAEDEADYYCQSYDRSLHYVFGAGTKVTVL ?
0.0438 µg/mL
